Biological target: T1, soluble H-2K^b (K^bsol), heterodimer of truncated K^b heavy chain and murine β-2 microglobulin, purified empty from Drosophila cells (murine), P01901
T1 chain 1: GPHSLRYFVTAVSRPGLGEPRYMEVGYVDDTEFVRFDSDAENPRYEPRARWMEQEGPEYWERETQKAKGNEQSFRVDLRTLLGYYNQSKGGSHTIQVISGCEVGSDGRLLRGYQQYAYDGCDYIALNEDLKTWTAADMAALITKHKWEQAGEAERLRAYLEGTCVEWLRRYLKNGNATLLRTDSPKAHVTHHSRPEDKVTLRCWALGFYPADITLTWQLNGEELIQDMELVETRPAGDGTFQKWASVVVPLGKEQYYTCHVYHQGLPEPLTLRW
T1 chain 2: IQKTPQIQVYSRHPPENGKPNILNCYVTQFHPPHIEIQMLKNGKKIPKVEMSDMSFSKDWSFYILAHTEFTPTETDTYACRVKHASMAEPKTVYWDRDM
Assay: competitive RIA against [^125I]VSV-8 on K^bsol, P30 gel filtration, 23° C.
ASSAY_ENDPOINT: Kd (µM)

{"BINDER": "EQLESIINFEKLTEWTSSNVMEER (modifications not checked) [OVA-24]", "UNITS_SYMBOL": "µM", "NUMERIC_RESULT": 71}

The reported numbers originate from patent US20030077318A1.
